target: UniProtKB O60502; experiment: Fluorescence-based assay for determination of KI values for inhibition of O-GlcNAcase activity; assay type: biochemical; conditions: purified human O-GlcNAcase, 4-Methylumbelliferyl N-acetyl-β-D-glucosaminide substrate, pH 7.0, Cheng-Prusoff; read-out: Fluorescence-based hOGA Ki
Sequence (O60502 whole entry): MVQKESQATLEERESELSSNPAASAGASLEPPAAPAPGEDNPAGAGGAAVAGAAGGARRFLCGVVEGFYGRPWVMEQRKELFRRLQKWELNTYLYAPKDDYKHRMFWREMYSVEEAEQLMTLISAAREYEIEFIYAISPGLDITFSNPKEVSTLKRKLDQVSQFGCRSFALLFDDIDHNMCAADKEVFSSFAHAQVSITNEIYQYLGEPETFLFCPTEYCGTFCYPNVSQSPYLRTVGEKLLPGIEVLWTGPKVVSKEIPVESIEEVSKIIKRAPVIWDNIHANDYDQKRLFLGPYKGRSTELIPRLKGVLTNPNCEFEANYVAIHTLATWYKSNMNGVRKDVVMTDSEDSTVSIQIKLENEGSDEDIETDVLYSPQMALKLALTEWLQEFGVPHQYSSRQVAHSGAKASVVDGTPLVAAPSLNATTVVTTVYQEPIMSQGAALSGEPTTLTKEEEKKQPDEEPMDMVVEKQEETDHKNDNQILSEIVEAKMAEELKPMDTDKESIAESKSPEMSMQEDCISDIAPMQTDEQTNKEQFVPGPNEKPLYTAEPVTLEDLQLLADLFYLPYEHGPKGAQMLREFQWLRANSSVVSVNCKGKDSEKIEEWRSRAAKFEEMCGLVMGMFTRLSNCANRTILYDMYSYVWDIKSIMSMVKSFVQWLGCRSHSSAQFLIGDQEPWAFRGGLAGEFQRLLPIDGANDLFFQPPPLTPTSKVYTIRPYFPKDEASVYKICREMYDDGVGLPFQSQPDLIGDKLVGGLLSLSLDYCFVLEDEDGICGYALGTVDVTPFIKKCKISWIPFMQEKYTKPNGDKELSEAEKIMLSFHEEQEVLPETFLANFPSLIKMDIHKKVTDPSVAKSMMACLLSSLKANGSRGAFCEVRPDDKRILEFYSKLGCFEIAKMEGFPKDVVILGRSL
pKi: −log10 of the molar value.
EXPERIMENTAL_READOUT: pKi

compound="CON(C)C1=N[C@@H]2[C@@H](O)[C@H](O)[C@@H]([C@@H](O)C(F)(F)F)O[C@@H]2S1 [Example 98]" system_tested="UniProtKB O60502" experimental_readout=pKi observed=8.84
compound="CNC1=N[C@@H]2[C@@H](O)[C@H](O)[C@@H]([C@@H](C)F)O[C@@H]2S1 (single isomer, unassigned) [Example 181]" system_tested="UniProtKB O60502" experimental_readout=pKi observed=9.10
compound="C=C[C@H](O)[C@H]1O[C@@H]2SC(NCCC)=N[C@@H]2[C@@H](O)[C@@H]1O (single isomer, unassigned) [Example 42]" system_tested="UniProtKB O60502" experimental_readout=pKi observed=8.99
